meta.source: patent US6887896B1

// values below are reported RXR Trans. efficacy (number in parentheses) β
systemUnderTest: RXRβ (UniProt P28704)
Sequence (P28704 1-520): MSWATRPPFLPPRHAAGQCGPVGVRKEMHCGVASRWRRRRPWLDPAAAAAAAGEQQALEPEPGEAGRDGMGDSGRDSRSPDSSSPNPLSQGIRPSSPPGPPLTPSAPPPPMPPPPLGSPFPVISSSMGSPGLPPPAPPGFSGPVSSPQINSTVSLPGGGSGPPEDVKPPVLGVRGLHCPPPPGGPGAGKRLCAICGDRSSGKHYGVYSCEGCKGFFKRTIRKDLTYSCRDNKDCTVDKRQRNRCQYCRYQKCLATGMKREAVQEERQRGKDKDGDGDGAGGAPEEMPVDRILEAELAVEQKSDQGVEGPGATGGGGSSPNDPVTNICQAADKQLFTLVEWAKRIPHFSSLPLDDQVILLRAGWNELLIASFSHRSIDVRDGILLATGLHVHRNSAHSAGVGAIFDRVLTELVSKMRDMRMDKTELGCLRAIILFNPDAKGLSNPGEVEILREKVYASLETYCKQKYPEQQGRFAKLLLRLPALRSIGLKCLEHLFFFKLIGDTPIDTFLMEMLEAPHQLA
test: holoreceptor transactivation assay, RXRβ
Assay type: cell-based
testConditions: percentage compared to the standard compound
Express the result in % but write the number alone.

// known answers, use as guide
CCOc1c(\C(C)=C(F)/C=C/C(C)=C/C(=O)O)cc2c(c1Cl)C(C)(C)CC=C2C(C)C [Compound A-177]: 66
COc1c(\C(C)=C(F)/C=C/C(C)=C/C(=O)O)cc2c(c1Cl)OC(C)(C)C=C2C(C)C [Compound 170]: 88
CCC1=CC(C)(C)Oc2cc(OC)c(\C(C)=C/C=C/C(C)=C/C(=O)O)cc21 [Compound 42]: 98

Continue with the compound presented below.
get_value(item= COc1cc2c(cc1\C(C)=C/C=C/C(C)=C/C(=O)O)C(C(C)C)=CC(C)(C)O2 [Compound 43] , readout=RXR Trans. efficacy (number in parentheses) β) returns 96
